Reported pIC50 values follow for various molecules
EXPERIMENTAL TARGET: human V2 receptor (Homo sapiens, UniProt P30518)
Construct: expressed in transfected cells; host or cells: CHO K1 (ATCC) expressing firefly luciferase under a CRE-responsive promoter
Sequence (P30518 whole entry): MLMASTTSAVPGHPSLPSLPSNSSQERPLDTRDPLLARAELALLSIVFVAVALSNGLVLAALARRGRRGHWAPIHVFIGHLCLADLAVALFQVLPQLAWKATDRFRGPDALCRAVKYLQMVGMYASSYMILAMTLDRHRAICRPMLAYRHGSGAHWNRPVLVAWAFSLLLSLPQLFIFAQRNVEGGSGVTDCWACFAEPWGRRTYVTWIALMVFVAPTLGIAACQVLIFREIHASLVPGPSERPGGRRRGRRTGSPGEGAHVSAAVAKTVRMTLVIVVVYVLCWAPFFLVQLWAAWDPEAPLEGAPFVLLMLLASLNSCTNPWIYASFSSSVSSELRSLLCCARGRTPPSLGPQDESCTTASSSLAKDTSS
PROTOCOL TEXT: Cellular in vitro assay for determining vasopressin receptor activity, V2 receptor cell line (CHO, CRE-luciferase)
Format: cell-based
TEST SETTINGS: CHO cell line transfected with human V2 receptor; [Arg8]-vasopressin at EC50 concentration, 3 hours; read-out: IC50 hV2
pIC50 here: minus log base 10 of the concentration, concentration in moles per litre.

(Q) For the molecule shown here, O=C(Nc1ccccc1O)c1ccccc1-n1cnc(Cn2nc(-c3ccc(Cl)cc3)n(C[C@H](O)C(F)(F)F)c2=O)n1 [Example 247] , give the reported pIC50.
(A) 7.98

(Q) Any idea what its pIC50 is? The molecule is CC1(C)CCCN1C(=O)c1ccccc1-n1cnc(Cn2nc(-c3ccc(Cl)cc3)n(C[C@H](O)C(F)(F)F)c2=O)n1 [Example 336]
(A) 5.90

(Q) I have this molecule here, O=c1n(Cc2ncn(-c3cnccc3N3CCS(=O)(=O)CC3)n2)nc(-c2ccc(Cl)cc2)n1C[C@H](O)C(F)(F)F [Example 6] , and I need its recorded pIC50.
(A) 5.60

New cases:
(Q) What pIC50 value was documented for this molecule, O=C1CC[C@H](CNC(=O)c2ccccc2-n2cnc(Cn3nc(-c4ccc(Cl)cc4)n(C[C@H](O)C(F)(F)F)c3=O)n2)N1 [Example 179] ?
(A) 5.77

###

EXPERIMENTAL TARGET: human V2 receptor (Homo sapiens)
Construct: expressed in transfected cells; host or cells: CHO K1 (ATCC) expressing firefly luciferase under a CRE-responsive promoter
PROTOCOL TEXT: Cellular in vitro assay for determining vasopressin receptor activity, V2 receptor cell line (CHO, CRE-luciferase)
Type: cell-based
TEST SETTINGS: CHO cell line transfected with human V2 receptor; [Arg8]-vasopressin at EC50 concentration, 3 hours; read-out: IC50 hV2
Procedure: B-1. Cellular In Vitro Assay for Determining Vasopressin Receptor Activity The identification of agonists and antagonists of the V1a and V2 vasopressin receptors from humans, rats and dogs as well as the quantification of the activity of the compounds of the invention is carried out using recombinant cell lines. […] The bioluminescence of the cell lines is detected using a suitable luminometer [Milligan G, Marshall F, Rees S, Trends in Pharmacological Sciences 17, 235-237 (1996)]. […]
Collected pIC50 values appear next to each entry.
Scale: pIC50 equals -log10([C]), with [C] in mol/L.

Solved cases below.
(Q) Returns the measured pIC50 for the input compound. Input: O=C(NC1CC1)c1cccc(Cl)c1-n1cnc(Cn2nc(-c3ccc(Cl)cc3)n(C[C@@H](O)C(F)(F)F)c2=O)n1 [Example 393]
(A) 5.21

(Q) Recorded pIC50 for CC1CCC(C)N1C(=O)c1ccccc1-n1cnc(Cn2nc(-c3ccc(Cl)cc3)n(C[C@H](O)C(F)(F)F)c2=O)n1 (mixture of isomers) [Example 328] , please?
(A) 5.67

Next:
(Q) // lookup pIC50 for O=C(Nc1ncccc1-n1cnc(Cn2nc(-c3ccc(Cl)cc3)n(C[C@H](O)C(F)(F)F)c2=O)n1)C1CC1(F)F (mixture of isomers) [Example 75]
(A) 5.89

Numbers sourced from patent US11173151B2.
